TEST_PROTOCOL: Pharmacokinetic study of 5 compounds in rat plasma after oral administration of Zuogui Pill extract (HPLC-MS/MS, noncompartmental analysis)
Type: in vivo, Female Sprague-Dawley rats
SETUP_CONDITIONS: female, Sprague-Dawley, rat, po, 1.5 mL/100 g, osteoporosis rats (ovariectomized), oral Zuogui Pill extract 1.5 mL/100 g, n = 6, read-out: CL_F_obs (converted)
Procedure: Female Sprague-Dawley rats (180–220 g) were purchased from Shanghai Laboratory Animal Centre (Shanghai, China). The rats were maintained in a standard environment (22 ± 1°C, 60 ± 10% relative humidity, and a 12 h light/dark cycle) for one week to acclimate and fed water and food ad libitum. Twenty-four rats were divided randomly into […] and treated through ovary enucleation to establish the model of osteoporosis. […]
Label rule, in plain words: CL/F of 30 mL/min/kg and up is Satisfied, under 30 mL/min/kg is Not satisfied.

Before answering, review these 4 worked examples.
# COMPOUND, CATEGORY
data = [
    ("COC(=O)C1=CO[C@@H](O[C@@H]2O[C@H](CO)[C@@H](O)[C@H](O)[C@H]2O)[C@@H]2[C@@H](C)[C@@H](O)C[C@H]12", "Not satisfied"),
    ("O=C(/C=C/c1ccc(O)c(O)c1)O[C@@H]1C[C@](O)(C(=O)O)C[C@@H](O)[C@H]1O", "Not satisfied"),
    ("OCC1=C[C@@H](O)[C@@H]2C=CO[C@@H](O[C@@H]3O[C@H](CO)[C@@H](O)[C@H](O)[C@H]3O)[C@H]12", "Not satisfied"),
    ("O=Cc1ccc(O)c(O)c1", "Not satisfied"),
]

Now examine the next entry.
Prompt: Given COC(=O)C1=CO[C@@H](O[C@@H]2O[C@H](CO)[C@@H](O)[C@H](O)[C@H]2O)[C@@H]2[C@H](C)O[C@@H](O)C[C@H]12 [Morroniside, morroniside] , state whether its CL/F is at least 30 mL/min/kg.
Completion: Satisfied
